Origin of measurements: patent US9353090B2

- Test Protocol: physchem
- Condition Parameters: pH 2.2, aqueous buffer, kinetic from dmso stock, Solubility (pH 2.2)
Recorded Metric: solubility at 24 h (µg/mL)
Number only, in µg/mL; omit the unit.

COC[C@H]1N(c2cccc(-c3cccc(C)c3OCc3cc(C)c4c(c3)CCN(C3COC3)C4)n2)C[C@@H]2C[C@@]21C(=O)O | 120
Cc1ccc(OCc2cc(C)c3c(c2)CCN(C2CCOC2)C3)c(-c2csc(N3CC[C@@]4(C(=O)O)C[C@H]4C3)n2)c1 (mixture of isomers) | 120

Okay, now this compound:
Ask: Can you look up the measured solubility at 24 h of `COc1cc(COc2c(Cl)cccc2-c2csc(N3CC[C@@H](C(=O)O)[C@@H](OC)C3)n2)cc2c1CN(C1CCOCC1)CC2` for me?
Result: 135
